test system: Plasmodium berghei; assay: Luciferase/luciferin-expressing antifolate-resistant parasites were used to infect a culture of HepG2 cells that were pre-incubated with compounds. Infected hepatocytes emit light due to the luciferase reaction. Assay results are presented as the percent inhibition of light emission compared to control. […]; assay type: functional; conditions: sporozoite, PBLUC_HILL_SLOPE 2.08, PBLUC_R_SQUARED 0.691, read-out: LUCIFERASE INFECTION ASSAY - IC50
MEASURED PROPERTY: IC50 (µM)
Lab book: enter the figure in µM, no units written.

Entry `CCN(Cc1ccc2c(c1)OCO2)C(=O)/C=C/c1c(C)nc2sc(C)cn12` : IC50 on Plasmodium berghei = 8.61
